# study-system: T1, human EphA6 (Homo sapiens, UniProt Q9UF33)
# T1 construct: a protein of the extracellular region of each human Eph receptor fused with the SEAP protein and the His tag; made in house; host or cells: Expi293F cells (culture supernatant)
# T1 sequence (Q9UF33 23-550 limits assumed): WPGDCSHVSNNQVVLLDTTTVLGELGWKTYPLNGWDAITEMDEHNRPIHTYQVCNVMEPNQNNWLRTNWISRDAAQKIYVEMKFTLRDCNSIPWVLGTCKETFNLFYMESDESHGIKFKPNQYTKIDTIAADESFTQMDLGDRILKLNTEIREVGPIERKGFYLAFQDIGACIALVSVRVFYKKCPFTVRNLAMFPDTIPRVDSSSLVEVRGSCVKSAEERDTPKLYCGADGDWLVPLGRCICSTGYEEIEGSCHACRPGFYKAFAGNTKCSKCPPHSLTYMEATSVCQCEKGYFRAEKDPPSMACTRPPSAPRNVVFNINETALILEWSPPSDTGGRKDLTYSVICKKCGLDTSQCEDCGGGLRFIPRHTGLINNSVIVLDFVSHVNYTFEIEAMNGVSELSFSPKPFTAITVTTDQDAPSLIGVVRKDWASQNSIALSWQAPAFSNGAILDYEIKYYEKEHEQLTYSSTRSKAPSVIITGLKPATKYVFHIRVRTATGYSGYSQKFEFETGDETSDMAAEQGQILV
# assay-details: Selectivity ELISA of humanized antibodies for human Eph receptor
# Type: binding
# stated-conditions: coated protein 1 nM
Below: a set of entries, each annotated with reported hEphA6-SEAP-: absorbance at 450 nm, percentage with respect to hEphA4-SEAP-His as 100%.
Dear colleague, please return just the value in %, with no unit written.

molecule	result-number
151 (antibody, V domains shown, synthetic humanized antibody heavy chain variable region sequence; synthetic humanized antibody light chain variable region sequence) VH: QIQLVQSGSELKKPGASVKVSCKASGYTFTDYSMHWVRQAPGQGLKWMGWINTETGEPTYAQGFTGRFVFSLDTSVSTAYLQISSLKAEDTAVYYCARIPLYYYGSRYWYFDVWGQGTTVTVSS VL: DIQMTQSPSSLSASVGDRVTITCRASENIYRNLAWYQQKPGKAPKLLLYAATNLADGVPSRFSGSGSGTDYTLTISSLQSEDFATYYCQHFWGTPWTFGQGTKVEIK	9.9

Next:
Task: I am curious: what hEphA6-SEAP-: absorbance at 450 nm, percentage with respect to hEphA4-SEAP-His as 100% value has been reported for 94 (antibody, V domains shown, constant regions without entry; synthetic humanized antibody light chain variable region sequence; synthetic humanized antibody heavy chain variable region sequence) VL: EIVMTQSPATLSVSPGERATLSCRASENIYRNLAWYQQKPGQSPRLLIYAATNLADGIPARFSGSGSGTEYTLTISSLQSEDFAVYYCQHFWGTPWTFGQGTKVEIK VH: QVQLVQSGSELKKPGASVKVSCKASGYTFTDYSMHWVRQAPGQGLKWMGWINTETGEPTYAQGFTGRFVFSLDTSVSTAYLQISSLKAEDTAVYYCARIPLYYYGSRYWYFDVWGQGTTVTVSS ?
Result: 8.6
